- ASSAY SYSTEM: human ERα (Homo sapiens)
- Construct: made in house; host or cells: E. coli (crude lysate)
- Sequence (P03372 311-547 limits assumed): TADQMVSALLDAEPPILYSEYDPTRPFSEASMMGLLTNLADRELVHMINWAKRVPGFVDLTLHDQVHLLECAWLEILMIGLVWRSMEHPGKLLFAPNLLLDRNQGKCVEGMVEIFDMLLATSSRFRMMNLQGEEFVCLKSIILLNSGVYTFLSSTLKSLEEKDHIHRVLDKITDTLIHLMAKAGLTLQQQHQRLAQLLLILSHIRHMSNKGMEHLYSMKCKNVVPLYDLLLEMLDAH
- PROTOCOL TEXT: Competition with [3H]-17β-estradiol for binding to the ERα ligand binding domain
- MEASUREMENT PARAMETERS: E. coli lysate expressing human ERα LBD; 2 nM [3H]-17β-estradiol; 5-15 hours at room temperature
QUANTITY: IC50 (µM)

Please review the following examples before continuing.
COMPOUND	QUANTITY	UNIT LABEL	TEST RESULT
Oc1ccc2c(c1)OCc1c-2nc2ccc(O)cc2c1-c1ccc(C(F)(F)F)cc1 [Cpd 16]	IC50	µM	6.09
C#Cc1c2c(nc3ccc(O)cc13)-c1ccc(O)cc1OC2 [Cpd 10]	IC50	µM	0.131
Oc1ccc2c(c1)OCc1c-2nc2ccc(O)cc2c1Br [Cpd 7]	IC50	µM	0.063
N#Cc1cccc(-c2c3c(nc4ccc(O)cc24)-c2ccc(O)cc2OC3)c1 [Cpd 19]	IC50	µM	1.13
Oc1ccc2c(c1)OCc1c-2nc2ccc(O)cc2c1Cl [Cpd 6]	IC50	µM	0.088

P = N#Cc1c2c(nc3ccc(O)cc13)-c1ccc(O)cc1OC2 [Cpd 12]
Q = N#Cc1ccc(-c2c3c(nc4ccc(O)cc24)-c2ccc(O)cc2OC3)cc1 [Cpd 14]
R = Oc1ccc2c(c1)OCc1c-2nc2ccc(O)cc2c1-c1cccc(Cl)c1 [Cpd 17]
S = COc1cccc(-c2c3c(nc4ccc(O)cc24)-c2ccc(O)cc2OC3)c1 [Cpd 18]
-- ask Order these by IC50, descending, and give the full ranking. # format: label list in the order the request specifies
-- reply Q, S, R, P

###

- ASSAY SYSTEM: human ERβ (Homo sapiens)
- Sequence (Q92731 264-498 limits assumed): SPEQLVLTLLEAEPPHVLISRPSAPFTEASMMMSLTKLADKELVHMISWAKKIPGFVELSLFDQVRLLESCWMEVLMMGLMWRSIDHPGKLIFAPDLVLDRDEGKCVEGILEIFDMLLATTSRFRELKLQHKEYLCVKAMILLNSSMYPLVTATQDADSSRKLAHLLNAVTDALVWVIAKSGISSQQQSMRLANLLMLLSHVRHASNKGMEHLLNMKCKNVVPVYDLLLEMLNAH
- PROTOCOL TEXT: Competition with [3H]-17β-estradiol for binding to the ERβ ligand binding domain
- MEASUREMENT PARAMETERS: E. coli lysate expressing human ERβ LBD; 2 nM [3H]-17β-estradiol; 5-15 hours at room temperature
QUANTITY: IC50 (nM)

MOLECULE	ASSAY SYSTEM	QUANTITY	UNIT LABEL	TEST RESULT
N#Cc1c2c(nc3ccc(O)cc13)-c1ccc(O)cc1OC2 [Cpd 12]	human ERβ (Homo sapiens)	IC50	nM	5.6

1 = Oc1ccc2c(c1)OCc1c-2nc2ccc(O)cc2c1-c1ccc(C(F)(F)F)cc1 [Cpd 16]
2 = COc1ccc(-c2c3c(nc4ccc(O)cc24)-c2ccc(O)cc2OC3)cc1 [Cpd 15]
-- ask API: POST /compare with 1 and 2 ; response names the item with higher IC50. Please respond with the label that marks your chosen entry.
-- reply 1
(1: 137 nM, 2: 61 nM)

###

- ASSAY SYSTEM: human ERβ (Homo sapiens)
- PROTOCOL TEXT: Competition with [3H]-17β-estradiol for binding to the ERβ ligand binding domain
- MEASUREMENT PARAMETERS: E. coli lysate expressing human ERβ LBD; 2 nM [3H]-17β-estradiol; 5-15 hours at room temperature
QUANTITY: IC50 (nM)

C[Si](C)(C)C#Cc1c2c(nc3ccc(O)cc13)-c1ccc(O)cc1OC2 225

1 = Oc1ccc2c(c1)OCc1c-2nc2ccc(O)cc2c1-c1cccc(Cl)c1
2 = N#Cc1ccc(-c2c3c(nc4ccc(O)cc24)-c2ccc(O)cc2OC3)cc1
-- ask API: POST /compare with 1 and 2 ; response names the item with higher IC50. Please respond with the label that marks your chosen entry.
-- reply 1
